Molecular target: Bcl-2 protein (Recombinant Human Bcl-2 Protein) (Homo sapiens, UniProt P10415)
Construct: purchased Novus NBP2-34889
Sequence (P10415 whole entry): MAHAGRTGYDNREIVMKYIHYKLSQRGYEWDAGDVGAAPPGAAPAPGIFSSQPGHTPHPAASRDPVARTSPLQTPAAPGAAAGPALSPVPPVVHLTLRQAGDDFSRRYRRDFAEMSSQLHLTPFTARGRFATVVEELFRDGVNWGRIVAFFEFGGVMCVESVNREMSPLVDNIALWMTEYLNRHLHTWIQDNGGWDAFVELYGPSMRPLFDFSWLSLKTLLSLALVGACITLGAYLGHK
Assay: Binding evaluation of mixture library compounds to Bcl-2 using AS-MS (affinity selection mass spectrometry)
Details: AS-MS on the mixture of 1200 library compounds; ASMS Ratio(%)=(A−C)/B×100; replicate n = 2
Would you kindly list ASMS ratio (%) n = 2 for each of these compounds?
Give bare numbers, in %.

>  <Compound>
CCOc1cccc(-c2ccc(C(=O)N3CCN(c4ccc(C(=O)Nc5ccc(OC)cc5)cc4)CC3)cc2F)c1 [B1O027-01]

>  <Measurement>
2.1

$$$$
>  <Compound>
CCOc1cncc(-c2cc(CN3CCN(c4ccc(C(=O)N(C)CC56CC7CC(CC(C7)C5)C6)cc4)CC3)cc(OC(C)C)c2)c1 [B3A058-01]

>  <Measurement>
−7.6

$$$$

Need ASMS ratio (%) n = 2 for each of these compounds.
1. CCOc1cccc(C#Cc2cncc(C(=O)N3CCN(c4ccc(C(=O)N(C)CC56CC7CC(CC(C7)C5)C6)nn4)CC3)c2)c1 [B3A009-01]
2. CCOc1cccc(-c2ccccc2CN2CCN(c3ccc(C(=O)N(C)CC45CC6CC(CC(C6)C4)C5)nn3)CC2)c1 [B3A071-01]
3. CCOc1cncc(C#Cc2cncc(C(=O)N3CCN(c4ccc(C(=O)N(CC)CC)nn4)CC3)c2)c1 [B4J010-01]
4. CCOc1cccc(-c2cc(CN3CCN(c4ccc(C(=O)N(C)CC56CC7CC(CC(C7)C5)C6)nn4)CC3)cc(C(F)(F)F)c2)c1 [B3A087-01]
5. CCOc1cncc(-c2csc(C(=O)N3CCN(c4ccc(C(=O)N(CC)CC)nn4)CC3)c2)c1 [B4J002-01]

-- reply
["−0.3", "−4.7", 2.3, 1.4, 2.1]
